# Tested on: Canis familiaris
# test protocol: Percent change in renal blood flow by 1.2 mg/kg of compound administered intravenously in dog
# Type: functional, Canis lupus familiaris, Kidney
# assay setup: route intravenous
property label: Change (%)

1) CCCNC(=O)Nc1c(O)nc(C)c2cc(OC)c(OC)cc12 : 5
2) C=CCNC(=O)Nc1c(O)nc(C)c2cc(OCC)c(OC)cc12 : 28
3) CCCCNC(=O)Nc1c(O)nc(C)c2cc(O)c(O)cc12 : -2
4) C=CCNC(=O)Nc1c(O)nc(C)c2cc(OC)c(OC)cc12 : 97
5) CCNC(=O)Nc1c(O)nc(C)c2cc(OC)c(OC)cc12 : 28
